As shown below, each of these compounds has a reported MLM (percentage of the remaining compound after 30 minutes of incubation) value.
- Method description: Stability test in liver microsomes (mouse)
- Assay type: in vitro ADME
- Protocol conditions: mouse liver microsomes 0.5 mg/mL, compound 1 μM, 37° C.
Response body: numeric value in %, unit text excluded.

item_smiles=C[C@H]1CN(C2COC2)CCN1c1ccc(Nc2cc(-c3ccnc(-n4cnn5c6c(cc5c4=O)CC(C)(C)C6)c3CO)cn(C)c2=O)nc1 reported_measurement=85.8
item_smiles=C[C@H]1CN(C2COC2)CCN1c1ccc(Nc2cc(-c3ccnc(-n4ccn5c6c(cc5c4=O)CC(C)(C)C6)c3CO)nn(C)c2=O)nc1 reported_measurement=83.4
item_smiles=C[C@H]1CN(C2COC2)CCN1c1ccc(Nc2cc(-c3ccnc(-n4ccn5c6c(cc5c4=O)CC(C)(C)C6)c3CO)cn(C)c2=O)nc1 reported_measurement=91.8
item_smiles=C[C@@H]1CN(c2ccc(Nc3cc(-c4ccnc(-n5ccn6c7c(cc6c5=O)CCC7)c4CO)cn(C)c3=O)nc2)[C@@H](C)CN1C1COC1 reported_measurement=90.5
item_smiles=Cn1cc(-c2ccnc(-n3ccn4c5c(cc4c3=O)CC(C)(C)C5)c2CO)cc(Nc2ccc(N3CCN(C4COC4)CC3=O)cn2)c1=O reported_measurement=89.5

Q: Please give the measured MLM (percentage of the remaining compound after 30 minutes of incubation) for this compound: C[C@H]1CN(C2COC2)CCN1c1cnc(Nc2cc(-c3ccnc(-n4ccn5c6c(cc5c4=O)CC(C)(C)C6)c3CO)cn(C)c2=O)nc1
Result: 93.1

Q: Please give the measured MLM (percentage of the remaining compound after 30 minutes of incubation) for this compound: C[C@H]1CN(C2COC2)CCN1c1ccc(Nc2cc(-c3ccnc(-n4ccn5c6c(cc5c4=O)CC(F)(F)CC6)c3CO)cn(C)c2=O)nc1
Result: 97.1

Q: Please give the measured MLM (percentage of the remaining compound after 30 minutes of incubation) for this compound: Cn1cc(-c2ccnc(-n3ccn4c5c(cc4c3=O)CC(C)(C)C5)c2CO)cc(Nc2ccc(N3CCN(C4COC4)CC3)cn2)c1=O
Result: 95.7

Q: Please give the measured MLM (percentage of the remaining compound after 30 minutes of incubation) for this compound: C[C@H]1CN(C2COC2)CCN1c1ccc(Nc2cc(-c3ccnc(-n4ccn5c(cc6ccccc65)c4=O)c3CO)cn(C)c2=O)nc1
Result: 97.5

Q: Please give the measured MLM (percentage of the remaining compound after 30 minutes of incubation) for this compound: C[C@H]1CN(C2COC2)CCN1c1ccc(Nc2cc(-c3ccnc(-n4ccn5c(cc6cc(F)ccc65)c4=O)c3CO)cn(C)c2=O)nc1
Result: 83.0

Q: Please give the measured MLM (percentage of the remaining compound after 30 minutes of incubation) for this compound: C[C@H]1CN(C2COC2)CCN1c1ccc(Nc2cc(-c3ccnc(-n4ccn5c6c(cc5c4=O)CCC6)c3CO)cn(C)c2=O)nc1
Result: 95.6

* * *

- Measurement target: phosphorylated BTK in Ramos cells (Homo sapiens (Human), UniProt Q06187)
- Sequence (Q06187 whole entry): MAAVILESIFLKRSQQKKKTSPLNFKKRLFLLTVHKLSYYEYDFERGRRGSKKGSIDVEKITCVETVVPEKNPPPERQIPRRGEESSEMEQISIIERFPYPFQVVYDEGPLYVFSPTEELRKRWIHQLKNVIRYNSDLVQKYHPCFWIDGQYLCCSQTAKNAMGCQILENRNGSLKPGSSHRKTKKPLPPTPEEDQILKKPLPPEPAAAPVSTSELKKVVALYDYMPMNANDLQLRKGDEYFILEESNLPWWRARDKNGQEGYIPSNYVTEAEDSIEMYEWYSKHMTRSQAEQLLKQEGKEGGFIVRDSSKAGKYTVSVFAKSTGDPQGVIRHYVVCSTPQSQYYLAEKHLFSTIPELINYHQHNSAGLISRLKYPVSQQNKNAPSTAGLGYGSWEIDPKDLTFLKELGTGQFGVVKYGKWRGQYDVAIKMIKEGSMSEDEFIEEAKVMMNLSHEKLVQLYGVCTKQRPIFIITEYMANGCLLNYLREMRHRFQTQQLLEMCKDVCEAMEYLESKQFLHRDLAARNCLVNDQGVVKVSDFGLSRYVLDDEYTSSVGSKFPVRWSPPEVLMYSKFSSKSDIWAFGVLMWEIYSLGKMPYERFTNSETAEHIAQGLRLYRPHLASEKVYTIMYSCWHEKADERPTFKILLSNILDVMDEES
- Method description: Determination of phosphorylated BTK in Ramos cells (BTK phospho-Y223 HTRF)
- Protocol conditions: anti-human IgM + hydrogen peroxide stimulation
Decide using IC50 alone. Strictly below 20 nM: true. Equal to or above 20 nM: false.

# example entries with known answers
compound=C[C@H]1CN(C2COC2)CCN1c1ccc(Nc2cc(-c3ccnc(-n4ccn5c6c(cc5c4=O)COCC6)c3CO)cn(C)c2=O)nc1 cat=false
compound=CC(=O)N1CCn2nc(Nc3cc(-c4ccnc(-n5ccn6c7c(cc6c5=O)CC(C)(C)C7)c4CO)cn(C)c3=O)cc2C1 cat=true
compound=COCCn1cc(Nc2cc(-c3ccnc(-n4ccn5c6c(cc5c4=O)CC(C)(C)C6)c3CO)cn(C)c2=O)cn1 cat=false
compound=CC1(C)Cc2cc3c(=O)n(-c4nccc(-c5cc(Nc6cc7n(n6)CCN(C6COC6)C7)c6ncnn6c5)c4CO)ccn3c2C1 cat=true
compound=Cc1cc(Nc2cc(-c3ccnc(-n4ccn5c6c(cc5c4=O)CC(C)(C)C6)c3CO)cn(C)c2=O)ncn1 cat=true

Q: Lab note: confirm whether the reported IC50 for this compound is below 20 nM, equality not counting. compound: Cn1cc(-c2ccnc(-n3ncn4c5c(cc4c3=O)CC(C)(C)C5)c2CO)cc(Nc2ccc(C3CN(C4COC4)C3)cn2)c1=O
Result: true

Q: Lab note: confirm whether the reported IC50 for this compound is below 20 nM, equality not counting. compound: C[C@H]1CN(C2COC2)CCN1c1ccc(Nc2cc(-c3ccnc(-n4ccn5c6c(cc5c4=O)CC(C)(C)[C@H]6O)c3CO)cn(C)c2=O)nc1
Result: false
